// data source = PubChem BioAssay (NCATS)

Test system: PC49
measurement_notes: qHTS profiling for inhibitors of Plasmodium falciparum proliferation (AID 504749); also: nearly all actives have a fitted effect of over 60% in size
stated_conditions: P. falciparum in erythrocytes, SYBR Green DNA, 72 h; series mostly up to 28.7 µM
Inconclusive results are not listed. Calls of active or inactive are those of the source. Calls follow the shape of the dose curve; as a rule, active = well fitted inhibition curve with a large enough effect; inconclusive = small, poorly fitted or top-dose-only effect; inactive = flat fitted curve, though single readings scatter.
Respond using exactly one of the listed classes: True (active), False (inactive)

COc1ncnc(NS(=O)(=O)c2ccc(N)cc2)c1OC	False

Dear all, I need the recorded test outcome for CCC(C)(C)c1ccc(CC(C)CN2C[C@@H](C)O[C@@H](C)C2)cc1 (stereo not given in full) , thank you.
False

Continue with Oc1c(Cl)cc(Cl)c2cccnc12
False

Continue with O=c1oc2c(O)c(O)cc3c(=O)oc4c(O)c(O)cc1c4c23
False

Continue with COc1ccc(C(=O)CC(=O)c2ccc(C(C)(C)C)cc2)cc1
False

Continue with Cc1nnc(NS(=O)(=O)c2ccc(N)cc2)s1
False

Continue with O=NN(CCCl)C(=O)NC1CCCCC1
False

Continue with CCCc1cc(C(N)=S)ccn1
False

Continue with CC(C)OC(=O)C(C(=O)OC(C)C)=C1SC=CS1
False

Continue with COc1ccc2cc3[n+](cc2c1OC)CCc1cc2c(cc1-3)OCO2
True

Continue with CCc1c2c(nc3ccc(OC(=O)N4CCC(N5CCCCC5)CC4)cc13)-c1cc3c(c(=O)n1C2)COC(=O)[C@]3(O)CC
False

Continue with COc1cnc(NS(=O)(=O)c2ccc(N)cc2)nc1
False

Continue with COc1nc(N)nc2c1ncn2[C@@H]1O[C@H](CO)[C@@H](O)[C@@H]1O
False

Continue with CCOC(=O)c1ccc(C#Cc2ccc3c(c2)C(C)(C)CCS3)nc1
False

Continue with O=C(O)c1cc(=O)[nH]c(=O)[nH]1
False
